Measured hERG current change (%, negative = inhibition) at 10uM accompanies every entry in the list below.
target: human ether-à-go-go-related gene (hERG) potassium channel (human, UniProt Q12809); assay: primary screen, population patch clamp on CHO cells stably expressing hERG; higher = less effect of the substance;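 further: peak tail current of the secondary pulse compared with the same well before compound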
Sequence (Q12809 whole entry, looked up): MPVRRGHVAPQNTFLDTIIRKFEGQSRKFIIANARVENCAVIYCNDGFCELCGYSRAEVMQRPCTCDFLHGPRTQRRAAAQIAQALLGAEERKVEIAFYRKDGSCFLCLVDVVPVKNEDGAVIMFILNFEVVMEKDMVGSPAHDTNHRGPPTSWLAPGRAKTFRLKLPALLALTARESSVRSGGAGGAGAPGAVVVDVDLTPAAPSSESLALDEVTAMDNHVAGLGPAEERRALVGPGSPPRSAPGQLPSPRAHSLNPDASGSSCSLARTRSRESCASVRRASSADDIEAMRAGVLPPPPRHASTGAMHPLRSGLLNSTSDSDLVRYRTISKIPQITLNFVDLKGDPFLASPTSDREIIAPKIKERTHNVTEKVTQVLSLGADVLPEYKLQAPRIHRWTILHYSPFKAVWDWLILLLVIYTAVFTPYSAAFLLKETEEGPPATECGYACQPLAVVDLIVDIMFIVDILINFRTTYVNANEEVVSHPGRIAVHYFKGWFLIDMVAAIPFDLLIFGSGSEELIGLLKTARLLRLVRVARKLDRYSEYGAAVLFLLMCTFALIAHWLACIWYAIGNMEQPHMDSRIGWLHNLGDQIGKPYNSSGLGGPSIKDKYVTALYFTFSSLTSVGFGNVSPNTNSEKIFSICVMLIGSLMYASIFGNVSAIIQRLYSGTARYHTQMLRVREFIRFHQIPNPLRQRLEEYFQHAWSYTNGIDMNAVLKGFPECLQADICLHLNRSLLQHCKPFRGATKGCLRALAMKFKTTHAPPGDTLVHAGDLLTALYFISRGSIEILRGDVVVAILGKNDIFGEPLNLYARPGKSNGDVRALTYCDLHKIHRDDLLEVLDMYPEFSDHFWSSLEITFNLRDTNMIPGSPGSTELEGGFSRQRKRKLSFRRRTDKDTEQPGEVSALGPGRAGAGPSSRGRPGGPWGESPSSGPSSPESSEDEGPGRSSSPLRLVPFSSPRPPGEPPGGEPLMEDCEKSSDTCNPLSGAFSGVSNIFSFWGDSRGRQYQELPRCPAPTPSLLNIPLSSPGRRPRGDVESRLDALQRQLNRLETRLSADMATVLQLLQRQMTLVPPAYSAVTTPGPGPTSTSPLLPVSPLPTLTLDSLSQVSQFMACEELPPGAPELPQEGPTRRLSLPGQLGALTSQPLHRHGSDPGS
Screen size: about 310,000 compounds; about 14,000 (4.5%) showed an effect of 50% or more. The effect is printed as a negative number. The full list was thinned out, with strong results kept by preference.
Answer format: numeric, % implied, no suffix.

CCN1CCN(CCOc2cccc(Cl)c2Cl)CC1.O=C(O)C(=O)O    -3.27
Cc1ccccc1NC(=O)c1ccc([N+](=O)[O-])o1    11.5
Cc1ccc(C(=O)c2c3ccccc3[n+]([O-])n2CCC(=O)O)cc1    14.4
CCN1CCN(CCCCOc2ccccc2F)CC1.O=C(O)C(=O)O    -9.65

Give hERG current change (%, negative = inhibition) at 10uM for Cc1nnc(SCC(=O)NCc2ccccc2)[nH]c1=O
-7.09

Please list hERG current change (%, negative = inhibition) at 10uM recorded for the compound Cc1ccccc1OCCN1CCCC1
7.01

Recall and state the measured hERG current change (%, negative = inhibition) at 10uM for CCOC(=O)C1CCN(c2c(NCCCN3CCCCC3)c(=O)c2=O)CC1 .
6.88

Quote hERG current change (%, negative = inhibition) at 10uM reported for COc1ccccc1C(=O)N(CCC1CCCN1C)c1nc2ccccc2s1 (centres unmarked) please.
-50.9

Assign hERG current change (%, negative = inhibition) at 10uM to the following record: COc1ccc(NC(=O)Nc2c(C)n(C)n(-c3ccccc3)c2=O)cc1
-18.6

Given the compound OCC(O)/C=N/Nc1nc2ccccc2s1 (centres unmarked) , write its reported hERG current change (%, negative = inhibition) at 10uM.
14

Supply hERG current change (%, negative = inhibition) at 10uM value. Item: CC(c1ccccc1)n1c(N2CCNCC2)nc2c1c(=O)[nH]c(=O)n2C (centres unmarked)
6.32

Give the value of hERG current change (%, negative = inhibition) at 10uM reported for the following: CN1CCN(c2ccccc2NC(=O)c2ccc([N+](=O)[O-])o2)CC1
-69.6

Return reported hERG current change (%, negative = inhibition) at 10uM. Input compound: O=C(Oc1c(Cl)cc(Cl)c2ccccc12)N1CCCC1
-25.9

Please give the documented hERG current change (%, negative = inhibition) at 10uM of COc1ccc(OC)c(C2=Nn3c(nnc3-c3cc(OC)c(OC)c(OC)c3)SC2)c1
-21

Look up and state reported hERG current change (%, negative = inhibition) at 10uM for CN1CCN(c2ccccc2NC(=O)c2ccc(-c3ccc(Cl)cc3Cl)o2)CC1
-3.82

Supply hERG current change (%, negative = inhibition) at 10uM value. Item: COc1ccc(-c2nnn(CC(=O)N(C3CCCCC3)C(C)C(=O)NC3CCCC3)n2)cc1OC (centres unmarked)
-22.1

Identify hERG current change (%, negative = inhibition) at 10uM associated with the compound COc1ccc(CNC(=O)c2cccnc2Sc2ccc(C)c(C)c2)cc1
3.63

Using the record for CN(C)CCCN(C(=O)/C=C/c1cccs1)c1nc2ccc(F)cc2s1.Cl , state its measured hERG current change (%, negative = inhibition) at 10uM.
-41

Read off the recorded hERG current change (%, negative = inhibition) at 10uM for CCOc1ccccc1OCCOCCN1CCN(Cc2ccccc2)CC1.O=C(O)C(=O)O
-48.5

Write down hERG current change (%, negative = inhibition) at 10uM measured for item CC(C(=O)Nc1ccc(Cl)cc1Cl)N1CC=C(c2ccccc2)CC1 (centres unmarked)
-28.1

# return recorded hERG current change (%, negative = inhibition) at 10uM for entry COCCN(C(=O)Nc1ccccc1OC)c1nc2ccccc2s1
19.9

Please give the documented hERG current change (%, negative = inhibition) at 10uM of Cc1cccc(NC(=O)c2ccc(-c3ccccc3[N+](=O)[O-])o2)c1
-55.2

Please report hERG current change (%, negative = inhibition) at 10uM for the following compound: COc1ccc(C(=O)c2c3ccccc3[n+]([O-])n2CCC[NH3+])cc1.O=C([O-])C(F)(F)F
-28.9

Write down hERG current change (%, negative = inhibition) at 10uM measured for item Cc1ccc(C(=O)OCC(=O)c2ccc(CC(=O)N3CCOCC3)s2)cc1C
-31.2

Output measured hERG current change (%, negative = inhibition) at 10uM for this item: COc1cc(C)ccc1OCc1cc(C(=O)NCCN2CCOCC2)no1
2.08
